Molecular target: human hNET (Homo sapiens)
Construct: expressed in transfected cells
Sequence (P23975 whole entry): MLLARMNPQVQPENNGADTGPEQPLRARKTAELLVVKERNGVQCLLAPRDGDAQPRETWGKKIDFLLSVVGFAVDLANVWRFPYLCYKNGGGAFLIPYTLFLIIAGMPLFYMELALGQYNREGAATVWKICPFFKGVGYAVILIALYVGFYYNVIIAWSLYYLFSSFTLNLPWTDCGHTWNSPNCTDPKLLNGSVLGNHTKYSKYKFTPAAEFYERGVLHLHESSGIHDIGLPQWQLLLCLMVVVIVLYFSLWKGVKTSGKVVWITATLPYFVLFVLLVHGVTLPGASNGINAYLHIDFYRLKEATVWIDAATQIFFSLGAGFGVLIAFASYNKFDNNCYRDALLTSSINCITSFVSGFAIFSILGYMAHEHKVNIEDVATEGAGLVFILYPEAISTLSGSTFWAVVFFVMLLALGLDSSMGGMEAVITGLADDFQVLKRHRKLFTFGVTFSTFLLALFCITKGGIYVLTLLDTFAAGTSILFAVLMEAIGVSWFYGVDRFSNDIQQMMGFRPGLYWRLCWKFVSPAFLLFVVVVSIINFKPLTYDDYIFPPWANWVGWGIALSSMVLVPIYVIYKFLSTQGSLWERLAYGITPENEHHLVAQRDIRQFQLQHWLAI
Experiment: Norepinephrine (NE) uptake assay in MDCK-Net6 cells
Format: cell-based
Conditions: 1 μM test compound, [3H]NE uptake
Counter-ions that a name gives are not always drawn.
measurementKind: inhibition at 1 µM (%)

Summary for this compound, CN1CCC(O)(C(CN2CCNCC2)c2ccc(Cl)c(Cl)c2)CC1 (stereo not shown) [Example 37, trihydrochloride] : inhibition at 1 µM is 57

P: CN1CCN(CC(c2cccc(Cl)c2)C2CCCC2)CC1 (stereo not shown) [Example 227, dihydrochloride]
Q: CN1CCN(CC(c2cccc(Cl)c2)C2CCCCCC2)CC1 (stereo not shown) [Example 235, dihydrochloride]
R: CN1CCN(CC(c2cccc(Br)c2)C2(O)CCC(C(C)(C)C)CC2)CC1 (stereo not shown) [Example 79, dihydrochloride]
## Task Could you please order the items by inhibition at 1 µM, going from the lowest number to the highest? Submit the labels in the order that the ranking request calls for.
## Result R, P, Q
